Where these numbers come from: PubChem BioAssay

- Test system: F380Y/beta1
- procedure_details: modulators of BK channel variants, profiling panel, selectivity assay, cell-based, U2OS BacMam, thallium flux, beta subunits (AID 1259406);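 note: initial slope of Thallos dye fluorescence rise after thallium is added; log ratio against the mean of 0.3% DMSO vehicle wells on the same plate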
- measurement_parameters: at 30 µM
experimental_readout: log fold change Tl+ flux
Keep it simple and answer with nothing but the number.

Worked cases, answers included:
CC(=O)OCC(=O)[C@@]1(O)CC[C@H]2[C@@H]3CCC4=CC(=O)CC[C@]4(C)[C@H]3[C@@H](O)C[C@@]21C ... -0.0206
COc1ccc(/C=C/C(=O)Nc2ccccc2C(=O)O)cc1OC ... -0.00383
COc1ccc(-c2cc(=O)c3c(OC)c(OC)c(OC)c(OC)c3o2)cc1OC ... 0.0362
CN(C)C(=O)C(CCN1CCC(O)(c2ccc(Cl)cc2)CC1)(c1ccccc1)c1ccccc1 ... 0.203

Please turn your attention to the following entry.
Asked: Look up and report measured log fold change Tl+ flux for this entry: CC(C(=O)O)c1cccc(C(=O)c2ccccc2)c1 (stereo not given)
Given back: -0.011

* * *

- procedure_details: HD-MB03 medulloblastoma cell growth inhibition, synergistic combos for chromothripsis tumors, BGB or cisplatin IC20 combos (AID 1671455);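 note: 0% = vehicle DMSO and 100% = high DMSO as cytotoxic control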
- measurement_parameters: HD-MB03 medulloblastoma cells, at 0.5 µM, stronger effect = higher value
inhibition values for the molecules below.
Express it in %; write the number only.

Worked cases, answers included:
COc1c2ccoc2cc2oc(=O)ccc12 ... -4.51
CC1(C(=O)O)CCC2(C)CCC3(C)C(=CC(=O)C4C5(C)CCC(OC(=O)CCC(=O)O)C(C)(C)C5CCC43C)C2C1 (stereo unspecified) ... 0.23
CN(N=O)C(=O)NC1C(O)OC(CO)C(O)C1O (stereo unspecified) ... -11.6
Nc1ncn([C@H]2C[C@H](O)[C@@H](CO)O2)c(=O)n1 ... 30.9
C[C@@H](CN1CC(=O)NC(=O)C1)N1CC(=O)NC(=O)C1 ... -16.4

Asked: Look up and report measured inhibition for this entry: `Nc1ccc2cc3ccc(N)cc3nc2c1`
Given back: -6.54

* * *

- procedure_details: inhibitors of Cryptococcus chitosan production, flow cytometry, Cibacron Brilliant Red staining (AID 1347148);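 note: compound exposure lasted three days at 37 degrees C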
- measurement_parameters: Cryptococcus neoformans chitosan, stronger effect = lower value; at 10 µM unless noted
Activity calls are given as the source filed them. No rule for the calls is given here. Where a SMILES comes first, the peptide text is derived from it. [ ]: non-standard residue; d: D form. The star is where a group is joined. Sta = CC(C)C[C@H](N)[C@@H](O)CC(=O)O; Isovaleryl = CC(C)CC(=O)*
experimental_readout: fold fluorescence

Worked cases, answers included:
N=C(N)c1ccc2cc(OC(=O)c3ccc(N=C(N)N)cc3)ccc2c1 ... 12.2 [at 143.9 µM] (inactive)
NCCCCCCNS(=O)(=O)c1cccc2c(Cl)cccc12 ... 9.13 [at 132.5 µM] (inactive)
COC(=O)C1=C(C)NC(C)=C(C(=O)OC)C1c1ccccc1[N+](=O)[O-] ... 3.72 [at 144.4 µM] (inactive)

Asked: Look up and report measured fold fluorescence for this entry: `NC(=NCc1ccccc1)NC(=O)c1nc(Cl)c(N)nc1N`
Given back: 5.57 [at 156.4 µM] (inactive)

Asked: Look up and report measured fold fluorescence for this entry: `NC(=O)c1cccc(N)c1`
Given back: 5.59 [at 367.2 µM] (inactive)

Asked: Look up and report measured fold fluorescence for this entry: `CCCCCCCCCCCCCCCC(=O)NCCO`
Given back: 4.46 (inactive)

Asked: Look up and report measured fold fluorescence for this entry: CC(C)CC(=O)N[C@H](C(=O)N[C@H](C(=O)N[C@@H](CC(C)C)[C@@H](O)CC(=O)N[C@@H](C)C(=O)N[C@@H](CC(C)C)[C@@H](O)CC(=O)O)C(C)C)C(C)C (Isovaleryl-VV[Sta]A[Sta]-OH)
Given back: 4.93 [at 72.9 µM] (inactive)

Asked: Look up and report measured fold fluorescence for this entry: `CCCC(=O)Nc1ncnc2c1ncn2[C@@H]1O[C@@H]2COP(=O)(O)O[C@H]2[C@H]1OC(=O)CCC`
Given back: 10.2 [at 101.8 µM] (inactive)

Asked: Look up and report measured fold fluorescence for this entry: `COc1ccc2cc1Oc1ccc(cc1)C[C@H]1c3cc(c(OC)cc3CCN1C)Oc1c(OC)c(OC)cc3c1[C@H](C2)N(C)CC3`
Given back: 5.71 [at 80.3 µM] (inactive)

* * *

fold change values for the molecules below.
- procedure_details: sensitizers of A549 cells to miR-34 induction, primary screen, imaging, A549 dox-inducible miR-34, nuclei and caspase counts (AID 1347080)
- measurement_parameters: A549 miR-34 inducible, Hoechst nuclei count, 48 h; stronger effect = lower value; cell number ratio, induced over uninduced
Keep it simple and answer with nothing but the number.

Asked: Look up and report measured fold change for this entry: `O=C(O)c1cc(=O)c2ccc(Cl)cc2[nH]1`
Given back: 0.965

Asked: Look up and report measured fold change for this entry: `O=C(O)CCc1nc2ccccc2[nH]1`
Given back: 0.93

Asked: Look up and report measured fold change for this entry: `CCCCCCCCCCCCCCCCCCCCCCO`
Given back: 0.841

Asked: Look up and report measured fold change for this entry: `CC[C@H]1OC(=O)[C@H](C)[C@@H](O[C@H]2C[C@@](C)(OC)[C@@H](O)[C@H](C)O2)[C@H](C)[C@@H](O[C@@H]2O[C@H](C)C[C@H](N(C)C)[C@H]2O)[C@](C)(O)C[C@@H](C)/C(=N\OCOCCOC)[C@H](C)[C@@H](O)[C@]1(C)O`
Given back: 0.869

* * *

- procedure_details: growth inhibition of DIPG glioma cells, dose response, cell-based, SU-DIPG-XIII, MIPE5.0, CellTiter-Glo, qHTS (AID 1347064);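 for AC50: cells exposed to compound for 48 hours before the viability read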
- measurement_parameters: SU-DIPG-XIII viability, CellTiter-Glo ATP luminescence
Results filed as inconclusive are left out. Activity calls are given as the source filed them. No cut-off is given here; in the data, nearly all actives have AC50 up to about 23 µM.
experimental_readout: AC50

Worked cases, answers included:
CC(=O)[C@H]1CC[C@H]2[C@@H]3CC=C4C[C@@H](O)CC[C@]4(C)[C@H]3CC[C@]12C ... inactive
O=C(O)c1c(Cl)c(Cl)c(Cl)c(Cl)c1-c1c2cc(I)c(=O)c(I)c-2oc2c(I)c(O)c(I)cc12 ... 6.61 µM (active)
CCOC(=O)Nc1ccc(NCc2ccc(F)cc2)nc1N ... inactive
O=C(O)c1nc(=O)[nH]c(=O)[nH]1 ... inactive
c1ccc2c(Cc3c[nH]c4ccccc34)c[nH]c2c1 ... inactive
CCC(=O)NCC[C@@H]1CCc2ccc3c(c21)CCO3 ... inactive
NCCc1cnc[nH]1 ... inactive
CC(C)(C)C(=O)Oc1ccc(S(=O)(=O)Nc2ccccc2C(=O)NCC(=O)O)cc1 ... inactive

Asked: Look up and report measured AC50 for this entry: `CCc1ccc(OCc2ccccc2C(=O)Nc2ccc3nc(C)cc(N)c3c2)cc1`
Given back: 7.42 µM (active)

Asked: Look up and report measured AC50 for this entry: `COc1ccc2cccc(CCNC(C)=O)c2c1`
Given back: inactive

Asked: Look up and report measured AC50 for this entry: CCc1ccc(CCOc2ccc(CC3SC(=O)NC3=O)cc2)nc1 (stereo unspecified)
Given back: inactive

* * *

- procedure_details: MDA-MB-436 breast carcinoma cell growth inhibition, synergistic combos for chromothripsis tumors, BGB or cisplatin combos (AID 1671458);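 note: cells exposed for 96 hours; 0% = vehicle DMSO and 100% = killing by high DMSO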
- measurement_parameters: MDA-MB-436 breast carcinoma growth inhibition, drug combinations; measured here: BGB combination; at 0.5 µM; stronger effect = higher value
experimental_readout: inhibition (%)
Express it in %; write the number only.

O=c1[nH]c(=O)n([C@H]2C[C@H](O)[C@@H](CO)O2)cc1Br ... -11.6
O=c1[nH]c(=O)n([C@H]2C[C@H](O)[C@@H](CO)O2)cc1C(F)(F)F ... -18.8
CN(N=O)C(=O)NC1C(O)OC(CO)C(O)C1O (stereo not given) ... -5.12
C[C@@H](CN1CC(=O)NC(=O)C1)N1CC(=O)NC(=O)C1 ... 2.41

Please turn your attention to the following entry.
Asked: Look up and report measured inhibition for this entry: `O=c1cc[nH]c(=O)[nH]1`
Given back: -30.5

* * *

- procedure_details: rescue of polyQ-huntingtin neuronal dysfunction in worms, whole organism, C. elegans mechanosensory neurons, N-terminal huntingtin (AID 1599)
- measurement_parameters: touch response, stronger effect = higher value
Potency and affinity values are given separately.
rescue above control values for the compounds below.
Keep it simple and answer with nothing but the number.

Worked cases, answers included:
Cc1c(N)c(=O)n(-c2ccccc2)n1C ... -0.44
CC(=O)N[C@@H]1[C@@H](O)[C@H](O)[C@@H](CO)O[C@H]1O ... 2.33
CC(C(=O)O)c1ccc(-c2ccccc2)c(F)c1 (configuration not stated) ... 19
COc1ccc(-c2coc3cc(O)cc(O)c3c2=O)cc1 ... 4
NC(=O)c1cccc(N)c1 ... -8.42

Asked: Look up and report measured rescue above control for this entry: `O=C(O)CCC(=O)OC[C@@H](NC(=O)C(Cl)Cl)[C@H](O)c1ccc([N+](=O)[O-])cc1`
Given back: -1.33

Asked: Look up and report measured rescue above control for this entry: `C1CNCCN1`
Given back: -1.97

Asked: Look up and report measured rescue above control for this entry: `NCCc1cnc[nH]1`
Given back: -5.3

Asked: Look up and report measured rescue above control for this entry: `CC(C)(C)CC(C)(C)c1ccc(OCCOCC[N+](C)(C)Cc2ccccc2)cc1`
Given back: 0

Asked: Look up and report measured rescue above control for this entry: CCCCN1CCCCC1C(=O)Nc1c(C)cccc1C (configuration not stated)
Given back: -7.52

Asked: Look up and report measured rescue above control for this entry: `CC(=O)N[C@@H](CC(C)C)C(=O)O`
Given back: 14.2

Asked: Look up and report measured rescue above control for this entry: CSCCC(N)C(=O)NC(CC(C)C)C(=O)NC(Cc1ccccc1)C(=O)O (configuration not stated)
Given back: 2.33
